Data origin, for the record: patent US20240002394A1

Target: HPK1 (Homo sapiens (Human), UniProt Q92918)
Sequence (Q92918 whole entry): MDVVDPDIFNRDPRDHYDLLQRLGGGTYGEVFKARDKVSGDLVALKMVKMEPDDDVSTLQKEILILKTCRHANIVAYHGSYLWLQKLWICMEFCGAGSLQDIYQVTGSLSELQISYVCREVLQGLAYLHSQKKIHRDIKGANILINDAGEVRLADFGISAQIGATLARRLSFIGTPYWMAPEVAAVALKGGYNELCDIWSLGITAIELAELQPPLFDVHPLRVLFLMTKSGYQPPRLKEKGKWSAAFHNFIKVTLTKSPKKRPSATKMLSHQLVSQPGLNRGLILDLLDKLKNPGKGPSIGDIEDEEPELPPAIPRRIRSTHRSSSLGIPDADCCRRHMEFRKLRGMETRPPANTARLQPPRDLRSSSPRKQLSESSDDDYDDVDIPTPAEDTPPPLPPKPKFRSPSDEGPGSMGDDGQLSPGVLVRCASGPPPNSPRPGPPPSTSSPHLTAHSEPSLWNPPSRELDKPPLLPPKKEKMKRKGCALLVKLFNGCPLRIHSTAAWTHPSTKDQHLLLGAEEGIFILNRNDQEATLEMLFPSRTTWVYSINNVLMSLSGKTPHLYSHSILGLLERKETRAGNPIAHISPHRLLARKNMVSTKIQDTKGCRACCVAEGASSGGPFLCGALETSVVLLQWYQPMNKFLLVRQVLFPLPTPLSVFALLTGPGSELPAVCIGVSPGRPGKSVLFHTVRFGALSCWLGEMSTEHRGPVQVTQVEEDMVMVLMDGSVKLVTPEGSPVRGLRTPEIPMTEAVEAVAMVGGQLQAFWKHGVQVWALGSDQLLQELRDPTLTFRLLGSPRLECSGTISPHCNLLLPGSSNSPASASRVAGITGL
reported endpoint: IC50 (nM)

>>> numeric_result("[2H]C1([2H])CN(C)CC([2H])([2H])N1c1ccc2[nH]c(-c3c(N)c4ccsc4[nH]c3=O)nc2c1 [Example 4]")
9.2
>>> numeric_result("[2H]c1cc2c(N)c(-c3nc4c([2H])c(N5CCN(C)CC5)c([2H])cc4[nH]3)c(=O)[nH]c2s1 [Example 5]")
8.8
>>> numeric_result("[2H]C1([2H])N(C)C([2H])([2H])C([2H])([2H])N(c2ccc3[nH]c(-c4c(N)c5ccsc5[nH]c4=O)nc3c2)C1([2H])[2H] [Example 2]")
9.7
>>> numeric_result("[2H]C1([2H])CN(c2ccc3[nH]c(-c4c(N)c5ccsc5[nH]c4=O)nc3c2)CC([2H])([2H])N1C [Example 3]")
7.5
